- Read-out: Insulin Like Growth Factor 1 (IGF1), IGF1 (gene 3479)
- assay: LTEA_HepaRG_IGF1: Life Technologies and Expression Analysis (LTEA) Assay for Insulin Like Growth Factor 1 (IGF1) using HepaRG (AID 2283506)
- measurementParameters: mRNA level, 48 h; actives raise or lower the signal
Active and inactive are the calls of the source. Rule for the calls: active = hit-call score of the fitted dose curve at least 0.9, where 1 is the maximum; inactive = score below 0.9.
Result category, one only: Yes = active, No = inactive

Consider the worked cases shown below.
• CC[C@H](C)[C@@H](C(=O)O)n1sc2ccccc2c1=O = No
• COCC(C)O (configuration not stated) = No
• OCCC(F)(F)C(F)(F)C(F)(F)C(F)(F)C(F)(F)C(F)(F)C(F)(F)C(F)(F)F = No
• COCC(C)OCC(C)O (configuration not stated) = No
• O=C(O)c1ccccc1C(c1ccc(O)cc1)c1ccc(O)cc1 = No
• NC(=O)N1C(=O)C(C(=O)c2cc(Cl)cs2)c2cc(F)c(Cl)cc21 (configuration not stated) = Yes
• CN1CCN(c2ccccc2/C=C2\SCCN(c3ccc(Cl)c(Cl)c3)C2=O)CC1 = Yes
• CCCCCCCCCCCCc1ccccc1S(=O)(=O)O = Yes

Query :: Lab log entry: O=c1c(-c2ccc(O)cc2)coc2cc(O)ccc12 — outcome as called in the assay?
Result :: No

Query :: Lab log entry: N#C[C@@H]1CC(F)(F)CN1C(=O)CNC1CC2CCC(C1)N2c1ncccn1 (some centres not stated) — outcome as called in the assay?
Result :: No

Query :: Lab log entry: CCc1ccc(CCOc2ccc(CC3SC(=O)NC3=O)cc2)nc1 (configuration not stated) — outcome as called in the assay?
Result :: Yes

Query :: Lab log entry: CCCCCCCCCCCCN1CCCC1=O — outcome as called in the assay?
Result :: No

----------
- assay: ATG_TCF_b_cat_CIS: Attagene CIS-FACTORIAL HepG2 Assay for human T-Cell-Factor with beta-catenin (TCF/b-cat) (AID 2282965)
- measurementParameters: HepG2 TCF/beta-catenin cis-reporter transcription, actives raise or lower the signal
Calls of active or inactive are those of the source. Rule for the calls: active = hit-call score of the fitted dose curve at least 0.9, where 1 is the maximum; inactive = score below 0.9.
Result category, one only: yes (active), no (inactive)

Query :: Lab log entry: CC(=O)CC(C)(C)O — outcome as called in the assay?
Result :: no

Query :: Lab log entry: O=C(/C=C/c1ccc(O)cc1)CC(=O)/C=C/c1ccc(O)cc1 — outcome as called in the assay?
Result :: no

Query :: Lab log entry: NCC(F)(F)C(F)(F)C(F)(F)C(F)(F)C(F)(F)C(F)(F)C(F)(F)F — outcome as called in the assay?
Result :: no

----------
- assay: BSK_SAg_SRB: Viability Assessment in the BioMAP Diversity Plus: SAg Assay (AID 2283096);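 note: cells read one day after compound addition; hits may be either gain or loss of signal compared with DMSO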
- measurementParameters: primary human HUVEC with PBMC
Active and inactive are the calls of the source. Rule for the calls: active = hit-call score of the fitted dose curve at least 0.9, where 1 is the maximum; inactive = score below 0.9.
Result category, one only: Yes = active, No = inactive

• CCC(C)(C)C1CCC(O)CC1 (stereo not drawn) = No

Query :: Lab log entry: CC(C)(C)c1cccc(C(C)(C)C)c1O — outcome as called in the assay?
Result :: No

Query :: Lab log entry: CC(C)(C)c1cc(C(C)(C)C)c(O)c(C(C)(C)C)c1 — outcome as called in the assay?
Result :: No

Query :: Lab log entry: O=C(OCCOCCOC(=O)c1ccccc1)c1ccccc1 — outcome as called in the assay?
Result :: No

Query :: Lab log entry: CC(C)(C)CC(C)(C)c1ccc(O)c(-n2nc3ccccc3n2)c1 — outcome as called in the assay?
Result :: No

Query :: Lab log entry: O=[N+]([O-])c1ccc(O)cc1 — outcome as called in the assay?
Result :: No

Query :: Lab log entry: CC[C@H](C)[C@@H](C(=O)O)n1sc2ccccc2c1=O — outcome as called in the assay?
Result :: No

Query :: Lab log entry: CCCCCCCCCCCCCCCS(=O)(=O)Oc1ccccc1 — outcome as called in the assay?
Result :: No

Query :: Lab log entry: CC(C)(C)c1ccc(O)c(C(C)(C)C)c1 — outcome as called in the assay?
Result :: Yes

Query :: Lab log entry: C=C(C)C(=O)OCCC(F)(F)C(F)(F)C(F)(F)C(F)(F)C(F)(F)C(F)(F)F — outcome as called in the assay?
Result :: No

Query :: Lab log entry: O=C(O)Cc1cc(I)c(Oc2cc(I)c(O)c(I)c2)c(I)c1 — outcome as called in the assay?
Result :: No

Query :: Lab log entry: CCC(=C(c1ccc(O)cc1)c1ccc(OCCN(C)C)cc1)c1ccccc1 — outcome as called in the assay?
Result :: Yes

Query :: Lab log entry: CCCCCCCCCCCCN1CCCC1=O — outcome as called in the assay?
Result :: Yes

Query :: Lab log entry: OC1CCCCC1 — outcome as called in the assay?
Result :: No

Query :: Lab log entry: O=c1c(-c2ccc(O)cc2)coc2cc(O)ccc12 — outcome as called in the assay?
Result :: No

Query :: Lab log entry: CC(=O)NC1(c2cccc(F)c2)CCN(CC[C@@]2(c3ccc(Cl)c(Cl)c3)CN(c3ccccc3)C(=O)CO2)CC1 — outcome as called in the assay?
Result :: Yes

Query :: Lab log entry: CCN(CC)CCNc1ccc(CNC=O)c2sc3ccc(OC)cc3c(=O)c12 — outcome as called in the assay?
Result :: Yes

Query :: Lab log entry: CCCCCCCCC(=O)O — outcome as called in the assay?
Result :: No

Query :: Lab log entry: CCCCC(CC)COC(=O)CCCCC(=O)OCc1ccccc1 (stereo not drawn) — outcome as called in the assay?
Result :: No

Query :: Lab log entry: CC(=O)CC(C)(C)O — outcome as called in the assay?
Result :: No

Query :: Lab log entry: CC(O)CO (stereo not drawn) — outcome as called in the assay?
Result :: No

Query :: Lab log entry: CN(C)C=O — outcome as called in the assay?
Result :: No

Query :: Lab log entry: CCCCC(CC)COC(=O)CCCCC(=O)OCC(CC)CCCC (stereo not drawn) — outcome as called in the assay?
Result :: No

----------
- Read-out: Transforming Growth Factor (TGFB1), TGFB1 (gene 7040)
- assay: LTEA_HepaRG_TGFB1: Life Technologies and Expression Analysis (LTEA) Assay for Transforming Growth Factor (TGFB1) Transporter using HepaRG (AID 2283533)
- measurementParameters: mRNA level, 48 h; actives raise or lower the signal
Active and inactive are the calls of the source. The calls were made as follows: active = hit-call score of the fitted dose curve at least 0.9, where 1 is the maximum; inactive = score below 0.9.
Result category, one only: active, inactive

Query :: Lab log entry: CCCCCCC(=O)O — outcome as called in the assay?
Result :: inactive

----------
- Read-out: Plasminogen activator inhibitor-1 (PAI1), SERPINE1 (gene 5054)
- assay: BSK_hDFCGF_PAI1: BioMAP Diversity Plus: hDFCGF Assay for Plasminogen activator inhibitor-1 (PAI1) Biomarker Activity (AID 2283066)
- measurementParameters: primary human foreskin fibroblasts; actives raise or lower the signal
Active and inactive are the calls of the source. Rule for the calls: active = hit-call score of the fitted dose curve at least 0.9, where 1 is the maximum; inactive = score below 0.9.
Result category, one only: true for active, false for inactive

* CC(C)(C)c1ccc(O)c(C(C)(C)C)c1 | true
* COC(=O)CCCCC(=O)OC | false
* CCCCC(CC)COC(=O)CCCCC(=O)OCc1ccccc1 (stereo unspecified) | false
* CCOC(=O)CC(O)(CC(=O)OCC)C(=O)OCC | false
* O=C(O)c1ccccc1C(c1ccc(O)cc1)c1ccc(O)cc1 | false
* CC[C@H](C)[C@@H](C(=O)O)n1sc2ccccc2c1=O | false
* Cc1oc(-c2ccccc2)nc1CCOc1ccc(C[C@H](Nc2ccccc2C(=O)c2ccccc2)C(=O)O)cc1 | true
* O=[N+]([O-])c1ccc(O)cc1 | false

Query :: Lab log entry: c1ccc2cc3c(ccc4ccccc43)cc2c1 — outcome as called in the assay?
Result :: false

Query :: Lab log entry: c1ccc2c(c1)Cc1ccccc1-2 — outcome as called in the assay?
Result :: false

Query :: Lab log entry: CCCCCCCCCCCCN1CCCC1=O — outcome as called in the assay?
Result :: true

Query :: Lab log entry: CC#C[C@]1(O)CC[C@H]2[C@@H]3CCC4=CC(=O)CCC4=C3[C@@H](c3ccc(N(C)C)cc3)C[C@@]21C — outcome as called in the assay?
Result :: true

----------
- assay: APR_HepG2_p53Act_72hr: Apredica 72-hour HepG2 Assay for p53 Activation (AID 2282923);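 note: average cellular p53 protein immunofluorescence intensity in HepG2 cells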
- measurementParameters: high-content imaging, actives raise or lower the signal
Active and inactive are the calls of the source. Rule for the calls: active = hit-call score of the fitted dose curve at least 0.9, where 1 is the maximum; inactive = score below 0.9.
endpointLabel: AC50

# example entries with known answers
* CCCOC(=O)c1ccc(O)cc1 | inactive
* CCC(C)(C)C1CCC(O)CC1 (centres undefined) | 105 µM (active)
* CC(=O)NC1(c2cccc(F)c2)CCN(CC[C@@]2(c3ccc(Cl)c(Cl)c3)CN(c3ccccc3)C(=O)CO2)CC1 | 18.7 µM (active)
* OCCC(F)(F)C(F)(F)C(F)(F)C(F)(F)C(F)(F)C(F)(F)C(F)(F)C(F)(F)F | 29.5 µM (active)
* CCc1nn(C2CCCCC2)c2cc(C3(C#N)CCC(C(=O)O)CC3)ccc12 (centres undefined) | 97.7 µM (active)
* ClC1=C(Cl)C(Cl)(Cl)C(Cl)=C1Cl | inactive
* CCCCC(CC)COC(=O)CCCCC(=O)OCC(CC)CCCC (centres undefined) | inactive
* CC(O)CO (centres undefined) | inactive

Attention now shifts to the item below.
Query :: Entry OC1CCCCC1 needs its AC50 filled in; supply it.
Result :: inactive
